B1: r16_88_TrROS_Hall (parent)
chain: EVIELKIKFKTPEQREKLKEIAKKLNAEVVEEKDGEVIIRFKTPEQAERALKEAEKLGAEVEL

# Variants of: B1
# protocol-details: folding stability dG (cDNA display proteolysis); higher = more stable
# protocol-conditions: PBS, room temperature
The entries below come with measured folding stability dG values attached.

[
  {
    "variant-key": "F9C",
    "folding stability dG (kcal/mol)": 4.19
  },
  {
    "variant-key": "E20T",
    "folding stability dG (kcal/mol)": 4.5
  },
  {
    "variant-key": "E4Q",
    "folding stability dG (kcal/mol)": 4.79
  },
  {
    "variant-key": "I21D",
    "folding stability dG (kcal/mol)": 3.4
  },
  {
    "variant-key": "E36K",
    "folding stability dG (kcal/mol)": 4.65
  },
  {
    "variant-key": "E13I",
    "folding stability dG (kcal/mol)": 4.32
  },
  {
    "variant-key": "N26A",
    "folding stability dG (kcal/mol)": 4.41
  },
  {
    "variant-key": "V61Y",
    "folding stability dG (kcal/mol)": 3.79
  },
  {
    "variant-key": "I7Y",
    "folding stability dG (kcal/mol)": 4.82
  },
  {
    "variant-key": "F9L",
    "folding stability dG (kcal/mol)": 4
  },
  {
    "variant-key": "Q14P",
    "folding stability dG (kcal/mol)": 3.48
  },
  {
    "variant-key": "R40N",
    "folding stability dG (kcal/mol)": 4.13
  },
  {
    "variant-key": "E31L",
    "folding stability dG (kcal/mol)": 4.62
  },
  {
    "variant-key": "A22W",
    "folding stability dG (kcal/mol)": 4.68
  },
  {
    "variant-key": "L57M",
    "folding stability dG (kcal/mol)": 4.31
  },
  {
    "variant-key": "K19A",
    "folding stability dG (kcal/mol)": 4.18
  },
  {
    "variant-key": "E1W",
    "folding stability dG (kcal/mol)": 4.18
  },
  {
    "variant-key": "E13W",
    "folding stability dG (kcal/mol)": 4.85
  },
  {
    "variant-key": "E36I",
    "folding stability dG (kcal/mol)": 4.32
  },
  {
    "variant-key": "L57W",
    "folding stability dG (kcal/mol)": 4.6
  },
  {
    "variant-key": "K24N",
    "folding stability dG (kcal/mol)": 4.46
  },
  {
    "variant-key": "E45I",
    "folding stability dG (kcal/mol)": 4.5
  }
]
